Biological target: Potassium voltage-gated channel subfamily KQT member 2 (Rattus norvegicus)
Experiment: KCNQ2 potentiation in CHO cells – cell-based, FluxOR thallium flux, counter-screen for hERG block protector project, confirmation (AID 1942);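 note: normalized value minus buffer-control mean plus three SD of buffer wells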
Details: FluxOR thallium flux fluorescence, at 10 µM, hits give high values
Screen size: about 2,400 compounds; about 580 (24%) were called active. The list is a sample of the results.
Metric name: activity change, less the hit threshold (%)
# output: bare number, implied unit %

Asked: Please report the measured activity change, less the hit threshold for CCOC(=O)c1sc(NC(=S)NC(=O)c2ccccc2)nc1C
Given back: -3.4

Asked: Please report the measured activity change, less the hit threshold for O=C(/C=C/Nc1ccc(F)cc1)c1ccco1
Given back: -17.3

Asked: Please report the measured activity change, less the hit threshold for COC(=O)c1sccc1NC(=S)N1CCN(C)CC1
Given back: -22.7

Asked: Please report the measured activity change, less the hit threshold for COC(=O)c1sccc1NC(=S)NCc1ccc(Cl)cc1
Given back: 3.3

Asked: Please report the measured activity change, less the hit threshold for CC(O)C(NS(=O)(=O)c1ccc(Cl)cc1)C(=O)OCc1cc([N+](=O)[O-])cc2c1OCOC2 (stereo unspecified)
Given back: -18.1

Asked: Please report the measured activity change, less the hit threshold for Cc1cc(C(F)(F)F)c2sc(N)nc2n1
Given back: -4.4

Asked: Please report the measured activity change, less the hit threshold for CS(=O)(=O)N(CCc1ccccc1)CC(=O)N1CCN(c2ccc(F)cc2)CC1
Given back: -26.1

Asked: Please report the measured activity change, less the hit threshold for CSc1ccccc1NC(=S)NCc1ccc(Cl)cc1
Given back: -17.2

Asked: Please report the measured activity change, less the hit threshold for Cn1c(/N=C/c2c(O)ccc3ccccc23)nc2ccccc21
Given back: -14.8

Asked: Please report the measured activity change, less the hit threshold for O=S(=O)(NCc1ccc(Cl)cc1Cl)c1ccc(N2CCOCC2)nc1
Given back: -15

Asked: Please report the measured activity change, less the hit threshold for Cc1cc(C=O)c2c(c1)C=CC1(Oc3ccccc3C(=O)N1C)O2 (stereo unspecified)
Given back: -0.3
